Study Target: AHNAK1, Q09666
Sequence (Q09666 4-100): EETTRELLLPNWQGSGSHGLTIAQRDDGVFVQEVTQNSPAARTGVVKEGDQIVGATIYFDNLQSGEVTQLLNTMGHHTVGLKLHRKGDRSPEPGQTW
Measurement Notes: holdup assay
Set-up: key: below the threshold = too weak to quantify, mostly under pKd 3.1 to 4
Condition Set: plain residues with an end cap or a label only (N-terminal biotin on a linker: ttds)
Measured Attribute: pKd

Complete the entry with pKd for SRPQRTQTQV [HPV67-E6, A4U7F2] below the threshold

Provide pKd value for the following binder: QSARYRDTEL [TJP2, Q9UDY2] 3.75

Output measured pKd for this item: VLRLQSETSV [VANGL1, Q8TAA9] below the threshold

Give the value of pKd reported for the following: IDNDTESTAL [ARHGAP17, Q68EM7] below the threshold

Return value of pKd for input RSLEEEESQL [GRASP, Q7Z6J2] , no commentary. 3.93

---
Output pKd of IYVPEAQTRL [DLGAP4, Q9Y2H0] below the threshold

Please give the documented pKd of SVWLRKETRV [CYSLTR2, Q9NS75] below the threshold

// Input: STLTIFETAL [ABCC4, O15439] . Output its pKd only. below the threshold

Return reported pKd. Input binder: TVASEKESVM [SLC1A5, Q15758] below the threshold
